Target: Hexokinase-4 (Homo sapiens)
Experiment: hGlck enzyme activity off-target inhibitors – biochemical, recombinant hGlck, counter-screen for TbHK1 inhibitor project (AID 492951)
Settings: G6PDH-coupled NADH absorbance 340 nm, at 10 µM
Activity calls are given as the source filed them.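 How the source made its calls: active means inhibition above 10%; inactive means the rest.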
Lab note: assign the record to one of active, inactive

Query: Recorded call for `COc1ccc(C(=O)Nc2cc(I)ccc2C(=O)O)cc1` ?
Response: inactive

Query: Recorded call for `COc1ccc(C(=O)Nc2ccc(Cl)cc2C(=O)O)cc1` ?
Response: inactive

Query: Recorded call for `O=C(Cn1sc2ccccc2c1=O)Nc1ccccc1Cl` ?
Response: inactive

Query: Recorded call for `O=C(Nc1cc(Cl)ccc1C(=O)O)c1ccncc1` ?
Response: inactive

Query: Recorded call for `Cc1cccc(C(=O)Nc2cc(Cl)ccc2C(=O)O)c1` ?
Response: inactive

Query: Recorded call for `COc1ccc2sn(-c3ccccc3)c(=O)c2c1` ?
Response: active

Query: Recorded call for `CCc1ccc(C(=O)Nc2cc(Cl)ccc2C(=O)O)cc1` ?
Response: inactive

Query: Recorded call for `COc1ccc(NC(=O)c2ccc(Cl)cc2C(=O)O)cc1` ?
Response: inactive

Query: Recorded call for `COc1ccc(N2C(=O)c3ccc(Cl)cc3C2=O)cc1` ?
Response: inactive

Query: Recorded call for `COc1cccc(NC(=O)Cn2sc3ccccc3c2=O)c1` ?
Response: inactive

Query: Recorded call for `Cc1ccccc1N1Cc2ccccc2C1=O` ?
Response: inactive

Query: Recorded call for `O=C(Nc1ccccc1)c1cc(F)ccc1S` ?
Response: inactive

Query: Recorded call for `O=C(Cn1sc2ccccc2c1=O)Nc1ccccc1` ?
Response: inactive

Query: Recorded call for `CN(C)c1cccc(NC(=O)Cn2sc3ccccc3c2=O)c1` ?
Response: active

Query: Recorded call for `COc1ccc(C(=O)Nc2c(C(=O)O)ccc(Cl)c2Cl)cc1` ?
Response: inactive

Query: Recorded call for `COc1ccc(C(=O)Nc2cc(OC)ccc2C(=O)O)cc1` ?
Response: inactive

Query: Recorded call for `CC1(c2ccc(C(=O)Nc3cc(Cl)ccc3C(=O)O)cc2)CC1` ?
Response: inactive

Query: Recorded call for `O=c1c2ccc(F)cc2sn1Cc1ccccc1` ?
Response: active

Query: Recorded call for `COc1cc(C(=O)Nc2cc(Cl)ccc2C(=O)O)cc(OC)c1OC` ?
Response: inactive

Query: Recorded call for `CCOC(=O)c1ccncc1NC(=O)c1ccc(OC)cc1` ?
Response: inactive

Query: Recorded call for `CCOC(=O)Cn1sc2ccccc2c1=O` ?
Response: inactive

Query: Recorded call for `COc1ccc(S(=O)(=O)Nc2cc(Cl)ccc2C(=O)O)cc1` ?
Response: inactive

Query: Recorded call for COc1ccc(C(=O)NC(CC(=O)O)c2ccc(Cl)cc2)cc1 (stereo not given) ?
Response: inactive

Query: Recorded call for `O=c1c2ccccc2sn1-c1ccccc1F` ?
Response: active

Query: Recorded call for `O=C(Cn1sc2ccccc2c1=O)NC1CCCCC1` ?
Response: inactive

Query: Recorded call for `COc1ccccc1-n1sc2ccccc2c1=O` ?
Response: active

Query: Recorded call for `O=c1s[nH]c2ccccc12` ?
Response: active

Query: Recorded call for `O=C(Nc1cc(Cl)ccc1C(=O)O)c1ccoc1` ?
Response: inactive

Query: Recorded call for `OB1OCc2cc(C(F)(F)F)ccc21` ?
Response: inactive

Query: Recorded call for `N#Cc1ccc2sn(-c3ccccc3)c(=O)c2c1` ?
Response: inactive

Query: Recorded call for `O=C(Nc1ccccc1)n1sc2ccccc2c1=O` ?
Response: active

Query: Recorded call for `Cn1sc(=O)c2ccccc21` ?
Response: active

Query: Recorded call for `O=C(O)c1ccccc1NC(=O)c1ccccc1C(=O)O` ?
Response: inactive

Query: Recorded call for `CN(C)c1ccc(C(=O)Nc2cc(Cl)ccc2C(=O)O)cc1` ?
Response: inactive

Query: Recorded call for `COc1ccc2c(c1)CN(c1cc(Cl)ccc1C(=O)O)C2=O` ?
Response: inactive

Query: Recorded call for COc1ccc(C(=O)NC(CC(=O)O)c2ccccc2)cc1 (stereo not given) ?
Response: inactive

Query: Recorded call for `O=C(Cn1sc2ccccc2c1=O)Nc1ccc(C(F)(F)F)cc1` ?
Response: active

Query: Recorded call for `COc1ccccc1C(=O)Nc1cc(Cl)ccc1C(=O)O` ?
Response: inactive

Query: Recorded call for `O=c1c2ccccc2sn1-c1cccc(Cl)c1` ?
Response: active

Query: Recorded call for `O=c1c(Br)csn1-c1ccc(Br)cc1` ?
Response: active

Query: Recorded call for `O=C(Cn1sc2ccccc2c1=O)Nc1cccc(F)c1` ?
Response: active

Query: Recorded call for `COc1ccc(C(=O)Nc2ccccc2C(=O)O)cc1Cl` ?
Response: active

Query: Recorded call for `O=c1c2ccc(Br)cc2sn1-c1ccccc1` ?
Response: active

Query: Recorded call for CC(C(=O)Nc1ccccc1)n1sc2ccccc2c1=O (stereo not given) ?
Response: inactive

Query: Recorded call for `COc1ccc(C(=O)Nc2cc(Cl)ccc2C(=O)O)cn1` ?
Response: inactive

====

Biological target: Hexokinase-4 (Homo sapiens)
Experiment: hGlck enzyme activity off-target inhibitors – biochemical, recombinant hGlck, counter-screen for TbHK1 inhibitor project (AID 492951)
Settings: G6PDH-coupled NADH absorbance 340 nm, at 10 µM
Calls of active or inactive are those of the source.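 How the source made its calls: active means inhibition above 10%; inactive means the rest.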
Lab note: assign the record to one of 1 for active, -1 for inactive

Query: Recorded call for `O=C(Nc1cc(Cl)ccc1C(=O)O)c1ccccc1` ?
Response: -1

Query: Recorded call for `O=C(Nc1cc(Cl)ccc1C(=O)O)c1ccc(C(F)(F)F)cc1` ?
Response: -1

Query: Recorded call for `COC(=O)c1ccc(Cl)cc1NC(=O)c1ccccc1OC` ?
Response: -1

Query: Recorded call for `COc1ccc(C(=O)Nc2cc(Cl)ccc2C(=O)O)cc1OC` ?
Response: 1

Query: Recorded call for `O=C1c2cccc(Br)c2SCN1c1ccccc1` ?
Response: -1

Query: Recorded call for `CC(C)(C)c1ccc(C(=O)Nc2cc(Cl)c(F)cc2C(=O)O)cc1` ?
Response: -1

Query: Recorded call for `O=C(Nc1cc(Cl)ccc1C(=O)O)c1ccsc1` ?
Response: -1

Query: Recorded call for `COc1ccc(C(=O)NCC(=O)O)cc1` ?
Response: 1

Query: Recorded call for `O=C(Cn1sc2ccccc2c1=O)Nc1ccccc1Br` ?
Response: -1

Query: Recorded call for `O=c1c2ccccc2on1-c1ccccc1` ?
Response: -1

Query: Recorded call for `COc1ccc(C(=O)Nc2cc(Cl)ccc2[N+](=O)[O-])cc1` ?
Response: -1

Query: Recorded call for `CN(Cc1ccccc1)C(=O)Cn1sc2ccccc2c1=O` ?
Response: 1

====

Target: Hexokinase-4 (Homo sapiens) (UniProt P35557)
Sequence (P35557 whole entry, looked up): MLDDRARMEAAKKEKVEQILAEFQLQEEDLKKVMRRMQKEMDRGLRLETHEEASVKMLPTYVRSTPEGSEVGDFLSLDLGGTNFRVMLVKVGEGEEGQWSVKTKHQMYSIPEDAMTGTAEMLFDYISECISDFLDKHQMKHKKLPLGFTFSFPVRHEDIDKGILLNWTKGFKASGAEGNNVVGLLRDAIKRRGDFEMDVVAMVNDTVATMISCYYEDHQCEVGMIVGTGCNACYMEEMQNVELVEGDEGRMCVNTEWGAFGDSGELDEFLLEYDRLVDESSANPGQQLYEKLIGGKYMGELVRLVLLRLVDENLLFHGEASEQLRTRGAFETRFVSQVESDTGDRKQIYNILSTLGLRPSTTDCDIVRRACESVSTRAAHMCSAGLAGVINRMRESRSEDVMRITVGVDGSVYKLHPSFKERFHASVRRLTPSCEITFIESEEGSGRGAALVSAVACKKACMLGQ
Assay: hGlck enzyme activity off-target inhibitors – biochemical, recombinant hGlck, counter-screen for TbHK1 inhibitor project (AID 492951)
Settings: G6PDH-coupled NADH absorbance 340 nm, at 10 µM; stronger effect = higher value
Activity calls are given as the source filed them.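 How the source made its calls: active means inhibition above 10%; inactive means the rest.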
MEASURE_NAME: inhibition

Some molecules with known inhibition results, for comparison:
[
  {
    "CHEMICAL_SMILES": "O=c1c2ccccc2sn1-c1cccc(F)c1",
    "inhibition": "28.2% (active)"
  },
  {
    "CHEMICAL_SMILES": "Cc1ccccc1NC(=O)Cn1sc2ccccc2c1=O",
    "inhibition": "inactive"
  },
  {
    "CHEMICAL_SMILES": "O=c1c2ccc([N+](=O)[O-])cc2sn1-c1ccccc1",
    "inhibition": "1.5% (inactive)"
  },
  {
    "CHEMICAL_SMILES": "O=C(Nc1cc(Cl)ccc1C(=O)O)c1ccc2c(c1)CCC2",
    "inhibition": "12.2% (active)"
  },
  {
    "CHEMICAL_SMILES": "CC(C)(C)c1ccc(C(=O)Nc2cc(Cl)c(Cl)cc2C(=O)O)cc1",
    "inhibition": "inactive"
  }
]

Lab note: next molecule to report on.
Query: Item under review: `O=C(Nc1cc(Cl)ccc1C(=O)O)c1ccc2c(c1)OCO2` . Reported inhibition?
Response: inactive

====

Target: Hexokinase-4 (Homo sapiens)
Assay: hGlck enzyme activity off-target inhibitors – biochemical, recombinant hGlck, counter-screen for TbHK1 inhibitor project (AID 492951)
Details: G6PDH-coupled NADH absorbance 340 nm, at 10 µM; stronger effect = higher value
Activity calls are given as the source filed them.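 How the source made its calls: active means inhibition above 10%; inactive means the rest.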
MEASURE_NAME: inhibition

Some molecules with known inhibition results, for comparison:
[
  {
    "CHEMICAL_SMILES": "COc1ccc(C(=O)Nc2cc(-c3ccccc3)ccc2C(=O)O)cc1",
    "inhibition": "inactive"
  },
  {
    "CHEMICAL_SMILES": "O=C(Cn1sc2ccccc2c1=O)Nc1ccccc1F",
    "inhibition": "inactive"
  },
  {
    "CHEMICAL_SMILES": "CC(C)(C)c1ccc(C(=O)Nc2cc(Cl)c(Br)cc2C(=O)O)cc1",
    "inhibition": "11.9% (active)"
  },
  {
    "CHEMICAL_SMILES": "COc1ccc(NC(=O)c2ccccc2SCc2ccccc2)cc1",
    "inhibition": "41.2% (active)"
  },
  {
    "CHEMICAL_SMILES": "COc1cccc(C(=O)Nc2cc(Cl)ccc2C(=O)O)c1",
    "inhibition": "inactive"
  },
  {
    "CHEMICAL_SMILES": "COc1cccc(-n2sc3ccccc3c2=O)c1",
    "inhibition": "49.9% (active)"
  }
]

Query: Item under review: `N#Cc1ccc(Oc2ccc3c(c2)B(O)OC3)cc1` . Reported inhibition?
Response: inactive

Query: Item under review: `O=C(NCc1ccccc1)n1sc2ccccc2c1=O` . Reported inhibition?
Response: 38.3% (active)

Query: Item under review: `O=c1c2cc([N+](=O)[O-])ccc2sn1-c1ccccc1` . Reported inhibition?
Response: 11.4% (active)

Query: Item under review: `O=c1c2cc(N3CCOCC3)ccc2sn1-c1ccccc1` . Reported inhibition?
Response: inactive

Query: Item under review: `COc1ccc(C(=O)Nc2cc(F)cc(F)c2O)cc1` . Reported inhibition?
Response: inactive

Query: Item under review: `CC(C)(C)c1ccc(C(=O)Nc2cc(Br)ccc2C(=O)O)cc1` . Reported inhibition?
Response: 26.2% (active)
